The measured values listed here are drawn from ChEMBL document CHEMBL1156891.

test-summary: Oral bioavailability in dog at 20 µmol/kg, po
experimental-context: in vivo
metric-name: bioavailability (%)
Only the number, expressed in %, is required.

### Prompt Given the entry `CC1=C(C(=O)N2CCC[C@H]2c2ccc(F)cc2)[C@@H](c2ccc(Cl)c(Cl)c2)n2nccc2N1` , report its measured bioavailability.
### Response 37

---

test-summary: Clearance in rat at 10 µmol/kg, intra-arterial infusion
experimental-context: in vivo
metric-name: clearance (mL/min/kg)
Only the number, expressed in mL/min/kg, is required.

### Prompt Given the entry `CC1=C(C(=O)N2CCC[C@H]2c2ccc(F)cc2)[C@@H](c2ccc(Cl)c(Cl)c2)n2nccc2N1` , report its measured clearance.
### Response 35

---

Tested on: Oryctolagus cuniculus
test-summary: Plasma concentration in rabbit at 10 mg/kg, iv
Format: ADME, organism-based
Design: dose 10 mg/kg, route intravenous
experimental-context: in vivo
metric-name: concentration (µM)
Only the number, expressed in µM, is required.

### Prompt Given the entry `CC1=C(C(=O)N2CCC[C@H]2c2ccc(F)cc2)[C@@H](c2ccc(Cl)c(Cl)c2)n2nccc2N1` , report its measured concentration.
### Response 7

---

test-summary: Terminal half life in dog at 10 µmol/kg, intra-arterial infusion
experimental-context: in vivo, read-out: beta t1/2 (converted)
metric-name: half-life (h)
Only the number, expressed in h, is required.

### Prompt Given the entry CC1=C(C(=O)N2CCC[C@H]2c2ccc(F)cc2)[C@@H](c2ccc(Cl)c(Cl)c2)n2nccc2N1 [BMS-394136] , report its measured half-life.
### Response 1.5

---

assay-target: Potassium voltage-gated channel subfamily A member 5 (Homo sapiens)
Sequence (P22460 whole entry): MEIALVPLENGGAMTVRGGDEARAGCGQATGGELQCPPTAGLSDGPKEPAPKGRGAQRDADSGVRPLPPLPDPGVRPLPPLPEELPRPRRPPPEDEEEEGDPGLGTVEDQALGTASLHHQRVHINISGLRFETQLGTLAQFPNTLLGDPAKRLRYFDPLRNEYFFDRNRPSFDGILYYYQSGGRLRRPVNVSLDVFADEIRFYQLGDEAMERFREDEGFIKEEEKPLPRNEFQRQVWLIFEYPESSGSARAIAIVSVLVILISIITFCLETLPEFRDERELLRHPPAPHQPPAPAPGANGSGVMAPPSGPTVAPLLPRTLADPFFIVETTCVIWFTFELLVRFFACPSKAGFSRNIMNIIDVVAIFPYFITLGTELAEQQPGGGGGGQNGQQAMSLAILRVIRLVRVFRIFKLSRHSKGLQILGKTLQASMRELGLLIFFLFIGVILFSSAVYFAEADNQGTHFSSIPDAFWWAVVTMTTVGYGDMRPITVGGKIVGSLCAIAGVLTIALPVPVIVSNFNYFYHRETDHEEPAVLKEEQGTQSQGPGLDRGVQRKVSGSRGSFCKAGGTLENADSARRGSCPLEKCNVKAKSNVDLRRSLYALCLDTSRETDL
test-summary: Inhibition of human Kv1.5 channel expressed in mouse L929 cells
IC50 overview
Only the number, expressed in nM, is required.

Consider the worked cases shown below.
| compound | assay-target | metric-name | result-number |
| --- | --- | --- | --- |
| CC1=C(C(=O)N2CCC[C@H]2c2nc(C)c(C)s2)C(c2ccc(Cl)c(Cl)c2)n2nccc2N1 (stereo partly drawn) | Potassium voltage-gated channel subfamily A member 5 (Homo sapiens) | IC50 | 300 |
| COC(=O)[C@@H]1CCCN1C(=O)C1=C(C)Nc2ccnn2C1c1ccc(Cl)c(Cl)c1 (stereo partly drawn) | Potassium voltage-gated channel subfamily A member 5 (Homo sapiens) | IC50 | 150 |
| CC1=C(C(=O)N2CCCC2c2ccccn2)C(c2ccc(Cl)c(Cl)c2)n2nccc2N1 (stereo not drawn) | Potassium voltage-gated channel subfamily A member 5 (Homo sapiens) | IC50 | 660 |
| CC1=C(C(=O)N2CCCC2c2ccc(F)cc2)C(c2ccc(Cl)c(Cl)c2)n2nccc2N1 (mixture of isomers; 7c) | Potassium voltage-gated channel subfamily A member 5 (Homo sapiens) | IC50 | 150 |

Moving on to another compound below.
### Prompt Given the entry CC1=C(C(=O)N2CCC[C@H]2c2cc(C)no2)C(c2ccc(Cl)c(Cl)c2)n2nccc2N1 (stereo in doubt; 20b) , report its measured IC50.
### Response 110

---

assay-target: Potassium voltage-gated channel subfamily A member 5 (Homo sapiens)
test-summary: Inhibition of human Kv1.5 channel expressed in mouse L929 cells
pIC50: −log10 of the molar value.
Short version: pIC50 at least 7 is Fulfilled, less is Not fulfilled.

Consider the worked cases shown below.
| compound | group-label |
| --- | --- |
| CC1=C(C(=O)N2CCC[C@H]2c2nnc[nH]2)C(c2ccc(Cl)c(Cl)c2)n2nccc2N1 (stereo in doubt; 17a) | Not fulfilled |
| CC1=C(C(=O)N2CCC[C@H]2c2ccc(F)cc2)[C@@H](c2ccc(Cl)c(Cl)c2)n2nccc2N1 | Fulfilled |
| CC1=C(C(=O)N2CCCC2c2ccncc2)C(c2ccc(Cl)c(Cl)c2)n2nccc2N1 (stereo not drawn) | Not fulfilled |

Query compound follows.
### Prompt # check: pIC50 of CC1=C(C(=O)N2CCC[C@H]2c2nnn(C)n2)C(c2ccc(Cl)c(Cl)c2)n2nccc2N1 (stereo partly drawn) is greater than or equal to 7
### Response Not fulfilled
